- Study system: Vascular endothelial growth factor receptor 2 (Homo sapiens, UniProt P35968)
- Sequence (P35968 whole entry): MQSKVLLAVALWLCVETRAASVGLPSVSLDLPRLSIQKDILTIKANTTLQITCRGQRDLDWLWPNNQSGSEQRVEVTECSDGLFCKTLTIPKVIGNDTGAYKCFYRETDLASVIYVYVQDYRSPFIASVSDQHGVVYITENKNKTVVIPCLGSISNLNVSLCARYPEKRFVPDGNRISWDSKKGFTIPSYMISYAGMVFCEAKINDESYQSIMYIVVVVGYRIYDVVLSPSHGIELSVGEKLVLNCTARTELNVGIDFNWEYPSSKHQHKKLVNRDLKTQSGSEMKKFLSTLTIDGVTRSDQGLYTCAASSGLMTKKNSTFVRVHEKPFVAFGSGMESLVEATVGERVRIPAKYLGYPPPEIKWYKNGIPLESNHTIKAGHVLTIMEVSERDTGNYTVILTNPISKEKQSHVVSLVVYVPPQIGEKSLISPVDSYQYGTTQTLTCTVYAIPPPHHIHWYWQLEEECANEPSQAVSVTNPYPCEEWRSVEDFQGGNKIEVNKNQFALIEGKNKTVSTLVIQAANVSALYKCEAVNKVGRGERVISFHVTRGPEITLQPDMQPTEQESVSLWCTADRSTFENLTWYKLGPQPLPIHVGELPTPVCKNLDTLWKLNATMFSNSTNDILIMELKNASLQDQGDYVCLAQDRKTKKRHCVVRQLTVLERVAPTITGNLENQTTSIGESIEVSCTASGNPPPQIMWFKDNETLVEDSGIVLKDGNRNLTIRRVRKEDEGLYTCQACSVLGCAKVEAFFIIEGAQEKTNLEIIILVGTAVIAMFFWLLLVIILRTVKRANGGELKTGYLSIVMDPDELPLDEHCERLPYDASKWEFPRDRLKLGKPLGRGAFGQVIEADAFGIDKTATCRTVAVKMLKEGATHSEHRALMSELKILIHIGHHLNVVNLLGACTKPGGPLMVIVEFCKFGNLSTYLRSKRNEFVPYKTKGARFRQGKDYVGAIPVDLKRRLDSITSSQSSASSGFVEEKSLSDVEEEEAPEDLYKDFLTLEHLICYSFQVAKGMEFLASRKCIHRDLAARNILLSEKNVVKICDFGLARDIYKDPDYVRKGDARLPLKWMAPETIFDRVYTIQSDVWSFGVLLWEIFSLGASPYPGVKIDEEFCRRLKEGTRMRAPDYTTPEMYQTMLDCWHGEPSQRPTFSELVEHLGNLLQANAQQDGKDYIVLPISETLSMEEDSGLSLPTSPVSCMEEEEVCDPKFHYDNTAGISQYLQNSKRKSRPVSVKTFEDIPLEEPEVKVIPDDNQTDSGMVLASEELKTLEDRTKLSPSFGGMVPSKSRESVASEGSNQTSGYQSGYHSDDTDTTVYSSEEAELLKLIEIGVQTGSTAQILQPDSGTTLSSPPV
pIC50: −log10 of the molar value.
Cut-off 7 on pIC50, inclusive. At or above means T; below means F.

Worked examples follow.
[[record]]
chemical_string = "CC(C)(N)c1ccc(-c2nc(Nc3cccc(Br)c3)ncc2Cl)cc1"
assigned_label = "F"

[[record]]
chemical_string = "CN(C)CCc1ccc(Nc2ncc(Cl)c(-c3c[nH]c4ccccc34)n2)cc1"
assigned_label = "T"

[[record]]
chemical_string = "Clc1cnc(Nc2ccc(CCN3CCCC3)cc2)nc1-c1ccc2cc[nH]c2c1"
assigned_label = "T"


Turning now to a further record.
Could you tell me if the measured pIC50 of "CN1CCN(CCc2ccc(Nc3ncc(Cl)c(-c4c[nH]c5ccccc45)n3)cc2)CC1" reaches 7 or more? T

----------
- Procedure summary: AUC in Sprague-Dawley rat at 10 mg/kg, po
- Type: ADME, organism-based
- Set-up: dose 10 mg/kg, route oral
- Details: plasma
# Lookup of reported AUC keyed by entry
Use µM·h as the unit, but write only the number.

These solved cases illustrate the format of a correct answer.
[[record]]
chemical_string = "CC(C)(N)c1ccc(-c2nc(Nc3ccc(CCO)cc3)ncc2Cl)cc1"
quantity_kind = "AUC"
experimental_result = 7.65

[[record]]
chemical_string = "Clc1cnc(Nc2ccc(CCN3CCCC3)cc2)nc1-c1ccc2cc[nH]c2c1"
quantity_kind = "AUC"
experimental_result = 5.74


Endpoint output: AUC of "CCN1CCN(CCc2ccc(Nc3ncc(Cl)c(-c4ccc5cc[nH]c5c4)n3)cc2)CC1" . Value? 6.12

----------
Record: pIC50 reported on Cyclin-dependent kinase 1 (Homo sapiens).
Sequence (P06493 whole entry): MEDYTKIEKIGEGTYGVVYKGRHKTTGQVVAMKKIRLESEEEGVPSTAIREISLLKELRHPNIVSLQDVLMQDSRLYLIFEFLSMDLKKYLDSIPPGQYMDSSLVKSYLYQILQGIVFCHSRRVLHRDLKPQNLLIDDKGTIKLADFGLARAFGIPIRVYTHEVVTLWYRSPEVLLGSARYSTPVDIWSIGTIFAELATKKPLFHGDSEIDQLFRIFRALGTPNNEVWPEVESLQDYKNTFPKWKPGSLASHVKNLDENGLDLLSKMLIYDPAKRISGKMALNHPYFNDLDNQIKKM
On this scale, pIC50 is minus log10 of a concentration expressed in M (mol/L).

Sample answers from the record:
[[record]]
chemical_string = "CN(C)CCc1ccc(Nc2ncc(Cl)c(-c3c[nH]c4ccccc34)n2)cc1"
study_system = "Cyclin-dependent kinase 1 (Homo sapiens)"
experimental_result = 7.32

[[record]]
chemical_string = "CC(C)(N)c1ccc(-c2nc(Nc3ccc(CCO)cc3)ncc2Cl)cc1"
study_system = "Cyclin-dependent kinase 1 (Homo sapiens)"
experimental_result = 6.16

[[record]]
chemical_string = "CN1CCN(CCc2ccc(Nc3ncc(Cl)c(-c4c[nH]c5ccccc45)n3)cc2)CC1"
study_system = "Cyclin-dependent kinase 1 (Homo sapiens)"
experimental_result = 6.74

[[record]]
chemical_string = "CN(C)CCc1ccc(Nc2ncc(Cl)c(-c3cccs3)n2)cc1"
study_system = "Cyclin-dependent kinase 1 (Homo sapiens)"
experimental_result = 6.34

[[record]]
chemical_string = "CN(C)CCc1ccc(Nc2ncc(Cl)c(-c3ccc4[nH]ccc4c3)n2)cc1"
study_system = "Cyclin-dependent kinase 1 (Homo sapiens)"
experimental_result = 6.07


Proceeding to the next compound to report its pIC50.
Fill in the blank: the reported pIC50 of "CN1CCN(CCc2ccc(Nc3ncc(Cl)c(-c4ccc(C(C)(C)N)cc4)n3)cc2)CC1" is ____. 5.79

----------
- Procedure summary: Cmax in Sprague-Dawley rat at 2 mg/kg, iv
- Format: ADME, organism-based
- Parameters: dose 2 mg/kg, route intravenous
- Details: in vivo
Cmax listing for selected compounds.
Quick reminder: number only, in nM, skip the unit.

I am curious: what Cmax value has been reported for "CC(C)(N)c1ccc(-c2nc(Nc3ccc(CCO)cc3)ncc2Cl)cc1" ? 1430

Can you handle "CCN1CCN(CCc2ccc(Nc3ncc(Cl)c(-c4ccc5cc[nH]c5c4)n3)cc2)CC1" next? 960

Also "Clc1cnc(Nc2ccc(CCN3CCCC3)cc2)nc1-c1ccc2cc[nH]c2c1" , if possible. 670

----------
- Procedure summary: AUC in Sprague-Dawley rat at 2 mg/kg, iv
- Assay type: ADME, organism-based
- Parameters: dose 2 mg/kg, route intravenous
- Details: plasma
Quantity kind: AUC
In your response, the unit should come after the numeric value.

// solved cases for AUC follow
[[record]]
chemical_string = "CCN1CCN(CCc2ccc(Nc3ncc(Cl)c(-c4ccc5cc[nH]c5c4)n3)cc2)CC1"
experimental_result = "3.06 µM·h"

[[record]]
chemical_string = "Clc1cnc(Nc2ccc(CCN3CCCC3)cc2)nc1-c1ccc2cc[nH]c2c1"
experimental_result = "1.63 µM·h"


Given "CC(C)(N)c1ccc(-c2nc(Nc3ccc(CCO)cc3)ncc2Cl)cc1" , state its recorded AUC. 2.77 µM·h

----------
Reported half-life values for a set of molecules
- Procedure summary: Half life in Sprague-Dawley rat at 2 mg/kg, iv
- Assay type: ADME, organism-based
- Parameters: dose 2 mg/kg, route intravenous
- Details: in vivo
Give just the number in h; leave the unit off.

[[record]]
chemical_string = "CCN1CCN(CCc2ccc(Nc3ncc(Cl)c(-c4ccc5cc[nH]c5c4)n3)cc2)CC1"
quantity_kind = "half-life"
experimental_result = 5.8

[[record]]
chemical_string = "CC(C)(N)c1ccc(-c2nc(Nc3ccc(CCO)cc3)ncc2Cl)cc1"
quantity_kind = "half-life"
experimental_result = 4.9


Field: next molecule
For "Clc1cnc(Nc2ccc(CCN3CCCC3)cc2)nc1-c1ccc2cc[nH]c2c1" , what is its reported half-life? 3.9

----------
- Procedure summary: Cmax in Sprague-Dawley rat at 10 mg/kg, po
- Assay type: ADME, organism-based
- Parameters: dose 10 mg/kg, route oral
- Details: in vivo
Quantity kind: Cmax
Form field: result (number plus unit)

Worked cases, Cmax given:
[[record]]
chemical_string = "CC(C)(N)c1ccc(-c2nc(Nc3ccc(CCO)cc3)ncc2Cl)cc1"
experimental_result = "1110 nM"

[[record]]
chemical_string = "Clc1cnc(Nc2ccc(CCN3CCCC3)cc2)nc1-c1ccc2cc[nH]c2c1"
experimental_result = "720 nM"


--- query ---
Can you share its Cmax? I mean this compound: "CCN1CCN(CCc2ccc(Nc3ncc(Cl)c(-c4ccc5cc[nH]c5c4)n3)cc2)CC1" 590 nM

----------
- Test system: HeLa
- Procedure summary: Antiproliferative activity against human HeLa cells
- Assay type: functional, cell-based
Quantity kind: pIC50
Here pIC50 is given on a logarithmic scale as minus log10 of the concentration in mol/L.

Consider the following illustrative entries.
[[record]]
chemical_string = "CN1CCN(CCc2ccc(Nc3ncc(Cl)c(-c4ccc(C(C)(C)N)cc4)n3)cc2)CC1"
experimental_result = 6.09

[[record]]
chemical_string = "CN(C)CCc1ccc(Nc2ncc(Cl)c(-c3ccc4[nH]ccc4c3)n2)cc1"
experimental_result = 6.22

[[record]]
chemical_string = "CN(C)CCc1ccc(Nc2ncc(Cl)c(-c3cccc4cc[nH]c34)n2)cc1"
experimental_result = 5.89

[[record]]
chemical_string = "CN(C)CCc1ccc(Nc2ncc(Cl)c(-c3n[nH]c4ccccc34)n2)cc1"
experimental_result = 5.51

[[record]]
chemical_string = "CN(C)CCc1ccc(Nc2ncc(Cl)c(-c3cccc4[nH]ccc34)n2)cc1"
experimental_result = 6.53


Value lookup for pIC50; key = "CCN1CCN(CCc2ccc(Nc3ncc(Cl)c(-c4ccc5cc[nH]c5c4)n3)cc2)CC1" 5.68

Next molecule: "CN1CCN(CCc2ccc(Nc3ncc(Cl)c(-c4c[nH]c5ccccc45)n3)cc2)CC1" 5.48

Please give the result for "CC(C)(N)c1ccc(-c2nc(Nc3ccc(CCN4CCOCC4)cc3)ncc2Cl)cc1" too. 5.52

Entry "CN(C)CCc1ccc(Nc2ncc(Cl)c(-c3c[nH]c4ccccc34)n2)cc1" please 7.12

Note, next up: "CN(C)CCc1ccc(Nc2ncc(Cl)c(-c3ccc(C(C)(C)N)cc3)n2)cc1" 6.30

Please answer likewise for "CNCCc1ccc(Nc2ncc(Cl)c(-c3ccc(C(C)(C)N)cc3)n2)cc1" 6.27

Further, for "Cc1nc(C)c(-c2nc(Nc3ccc(CCN(C)C)cc3)ncc2Cl)s1" ? 6.37

Try the molecule "CC(C)(N)c1ccc(-c2nc(Nc3cccc(Br)c3)ncc2Cl)cc1" 5.47

Then this molecule: "CC(C)(N)c1ccc(-c2nc(Nc3ccc(CCN4CCCC4)cc3)ncc2Cl)cc1" 6.47

What about "Clc1cnc(Nc2ccc(CCN3CCCC3)cc2)nc1-c1ccc2cc[nH]c2c1" ? 6.01

Input "CC(C)(N)c1ccc(-c2nc(Nc3ccc(CCO)cc3)ncc2Cl)cc1" 5.53

Again, but for "CN(C)CCc1ccc(Nc2ncc(Cl)c(-c3cccs3)n2)cc1" 5.91

Do the same for "CN(C)CCc1ccc(Nc2ncc(Cl)c(-c3ccc4cc[nH]c4c3)n2)cc1" please 6.33

----------
- Procedure summary: Half life in Sprague-Dawley rat at 10 mg/kg, po
- Format: ADME, organism-based
- Design: dose 10 mg/kg, route oral
- Details: in vivo
Each entry below carries its reported half-life.
Answer in h, number only, no unit symbol.

For orientation, consider the following solved cases.
[[record]]
chemical_string = "Clc1cnc(Nc2ccc(CCN3CCCC3)cc2)nc1-c1ccc2cc[nH]c2c1"
experimental_result = 2.6

[[record]]
chemical_string = "CCN1CCN(CCc2ccc(Nc3ncc(Cl)c(-c4ccc5cc[nH]c5c4)n3)cc2)CC1"
experimental_result = 4.6


# context switch: different compound, same half-life
Quick one: half-life of "CC(C)(N)c1ccc(-c2nc(Nc3ccc(CCO)cc3)ncc2Cl)cc1" ? 4.5
